Test system: PXR (GAL4(DBD)-zebrafish PXR(LBD))
assay method text: luciferase reporter transactivation in HG5LN GAL4-zfPXR cells
Type: cell-based
settings: read-out: activation of zebrafish PXR LBD (luciferase), fold induction
measured quantity: fold induction at 16 h, 1 µM
Give only the figure.

Check PXR (GAL4(DBD)-zebrafish PXR(LBD)) data and give fold induction at 16 h, 1 µM for `Clc1ccccc1C(c1ccccc1)(c1ccccc1)n1ccnc1` .
5
